In this section we review reported mGITR-His/BKG values for a set of binders.
Target: T1, mouse His6-GITR (mouse, UniProt O35714 20-153)
T1 construct: His6-tagged recombinant protein; also called mGITR-His; mouse GITR-His
T1 sequence: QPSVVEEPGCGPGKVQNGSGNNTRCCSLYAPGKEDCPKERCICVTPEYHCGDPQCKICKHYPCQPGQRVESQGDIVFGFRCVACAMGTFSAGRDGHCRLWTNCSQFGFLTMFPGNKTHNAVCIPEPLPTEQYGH
Assay: ELISA, scFv periplasmic extract on coated His6-GITR
measured-property: mGITR-His/BKG (fold over background)

• GITR-Mab-12 scFv (scFv, V domains shown, scFv in periplasmic extract, V5 tag) VH: QVQLVQSGAEVKKPGASVKVSCKASGYTFTSYAINWVRQAPGQGLEWMGILSPSGGGTSYAPKFQGRVTMTRDTSTSTVYMELSSLRSEDTAVYYCARGPWYFDLWGRGTLVTVSS VL: DIQMTQSPSSLSASVGDRVTITCRASQGISNSLAWYQQKPGKAPKLLIYAASSLQSGVPSRFSGSGSGTDFTLTISSLQPEDFATYYCQQSYSTPFTFGPGTKVDIK = 1
• GITR-Mab-22 scFv (scFv, V domains shown, scFv in periplasmic extract, V5 tag) VH: QVQLVQSGAEVKKPGASVKVSCKASGGRFSTYALSWVRQAPGQGLEWMGIINPTDGSTTYAQKFQGRVTMTRDTSTSTVYMELSSLRSEDTAVYYCARDVYSSSWYSDYWGQGTLVTVSS VL: DIQMTQSPSSLSASVGDRVTITCRASQSISNWLAWYQQKPGKAPKLLIYAASTLQSGVPSRFSGSGSGTDFTLTISSLQPEDFATYYCQQSYSVPFTFGPGTKVDIK = 1.2
• GITR-Mab-10 scFv (scFv, V domains shown, scFv in periplasmic extract, V5 tag) VH: QVQLVQSGAEVKKPGASVKVSCKASGYTFTSNYMHWVRQAPGQGLEWMGWMNPNSGNTAYAQKFQGRVTMTRDTSTSTVYMELSSLRSEDTAVYYCARGRGGQLLFDYWGQGTLVTVSS VL: DIQMTQSPSSLSASVGDRVTITCRASQGISSWLAWYQQKPGKAPKLLIYAASTLQSGVPSRFSGSGSGTDFTLTISSLQPEDFATYYCQQYNSYSTFGQGTKVEIK = 1.1
